System: NCI-H322M lung
Assay: NCI-60 one-dose screen, 48 h (100 = growth as untreated, 0 = no growth, -100 = all killed)
Conditions: 10 µM
Procedure: Growth inhibition of the NCI-H322M human Non-Small Cell Lung tumor cell line is measured as a screen for anti-cancer activity. Cells are grown in 96 well plates and exposed to the test compound for 48 hours. Compounds are tested at a single concentration, which is 10^-5 M for most compounds. The reported endpoint is percent growth (GI% or GIPRCNT), where numbers from 0 - 100% represent growth inhibition, and numbers from -100% - 0 represent cell death. […]
The panel holds about 83,000 compounds, 20% with a hit somewhere; the sample as a whole holds those more often.
Catalogue of growth values
QUANTITY NAME: growth (%)

COMPOUND | QUANTITY NAME | RECORDED VALUE
CC(CNC(Cc1ccccc1)c1ccccc1)NC(Cc1ccccc1)c1ccccc1 (stereo not drawn) | growth | 77.7
CCCCCCCCCCCCCCCCCBr | growth | 94.6
CCOC(=O)c1ccc(N(C=O)CCC(=O)CCl)cc1 | growth | 75.6
CCc1nn2c(-c3cc(OC)c(OC)c(OC)c3)c(-c3cc(OC)c(OC)c(OC)c3)nc2s1 | growth | 81.6
Fc1ccc2[nH]c3c(NCCCN4CCOCC4)ncnc3c2c1 | growth | 53.6
CCNC(=S)NN | growth | 78.7
COC(=O)c1cnc2c(c1)Oc1ccc(Cl)cc1-c1cc(C)nn1-2 | growth | 66.9
CC(=O)OC1Oc2ccccc2-c2oc(=O)c(-c3ccc(F)cc3)cc21 (stereo not drawn) | growth | 107
Cc1cc2cc3c(=O)[nH]c(=O)cc-3n(CC(O)C(O)C(O)CO)c2cc1C (stereo not drawn) | growth | 119
COc1ccc2oc(=O)cc(C(c3ccc[nH]3)c3ccc[nH]3)c2c1 | growth | 27.7
O=c1cc(CSc2nnc(-c3ccccc3)n2-c2ccc(F)cc2)c2ccc3ccccc3c2o1 | growth | 91.8
Cc1cc(=O)oc2cc(OCc3cn(CC(O)CO)nn3)ccc12 (stereo not drawn) | growth | 109
COc1ccc(C(=O)n2nc(CC(=O)NCc3ccccc3)nc2N)cc1 | growth | 95.4
CC(Oc1ccc(Cl)cc1)c1ccccc1 (stereo not drawn) | growth | 87.1
NC1CCC(Nc2nc(NCc3ccc(-c4cccs4)nc3)c3ncn(C4CCCC4)c3n2)CC1 (stereo not drawn) | growth | 19
COc1cccc(C2(C)Nc3ccccc3-c3nc4ccccc4n32)c1 (stereo not drawn) | growth | 92
O=C1/C(=C/c2ccc(O)cc2)Cc2ccc(Cl)cc21 | growth | 84.9
CCCCCCCCCCCCCCCC(=O)N1CCN(C)CC1 | growth | 71.3
O=C(Nc1ccc(Oc2ccc(Nc3nc4ccccc4s3)cc2)cc1)Nc1ccc(Cl)c(Cl)c1 | growth | 56.6
COc1ccc(C(=O)/C=C/c2cc(-c3ccc4c(c3)OCO4)n[nH]2)cc1OC | growth | 36.3
FC(F)(F)c1ccc(-c2cnc(Cl)nc2NCc2cc(C(F)(F)F)cc(C(F)(F)F)c2)cc1 | growth | 37.8
COc1cc(-c2nc3cc(Cl)c(Cl)cc3[nH]2)ccc1OCC(=O)NN | growth | 79.1
COc1ccc(NC(=O)c2sc3nc4c(cc3c2N)C(O)CCC4)cc1 (stereo not drawn) | growth | 30.6

###

test system: UACC-62 melanoma; assay: NCI-60 one-dose screen, 48 h (100 = growth as untreated, 0 = no growth, -100 = all killed); conditions: 10 µM
Compounds without any hit were thinned out: in the full panel of roughly 83,000, 20% have a hit.
Catalogue of growth values

COMPOUND | growth [%]
C[n+]1c(/C=C/c2c[nH]c3ccccc23)ccc2ccccc21 | 54.2
C=C[C@]1(C)C=C2C(=O)[C@@]3(O)OC(=O)[C@@]4(CCCC(C)(C)[C@H]34)[C@@]2(O)CC1 | -87.2
CCOC(=O)C(CCC1=NC(C)(C)CC(C)O1)C(=O)OCC (stereo unspecified) | 93.3
O=C(NNc1nc(N2CCCC2)nc(N2CCCC2)n1)c1ccccc1 | 99.3
COC(=O)CCCCCCCCC(C)c1ccc(C(C)=O)cc1 (stereo unspecified) | 116
COc1cc(Cl)cc(-c2nn(-c3cccc(NC(=O)Nc4cccc(C(F)(F)F)c4)c3)cc2-c2ccncc2)c1 | -11.5
CCN(CC)c1ccc(/C=C/C2=[N+](C)c3ccccc3C2(C)C)c(C)c1 | -21.4
COc1ccc(C2=Cc3ccc(OC(C)=O)cc3OC2)cc1 | 85.4
Oc1ccc(Cn2cc3c(c2-c2ccccc2)CCc2cnoc2-3)cc1 | 70.3
COc1cc(-c2nc3ccccc3[nH]2)ccc1OCC(=O)N=Nc1c(O)[nH]c2ccccc12 | 94.9
O=C(CCCC(=O)N/N=C/c1cc(Cl)ccc1O)N/N=C\c1cc(Cl)ccc1O | -16.9
Cc1ccc2nc(-c3ccc(OCC(=O)N=Nc4c(O)[nH]c5ccccc45)cc3)[nH]c2c1 | 96.5
COc1cccc2c1C(=O)c1c(O)c3c(c(O)c1C2=O)C[C@@](O)(C(=O)COC(=O)c1cccnc1)C[C@@H]3OC1CC(N)C(O)C(C)O1 (stereo partly specified) | -88.4
COc1cc(-c2nc(-c3nnc(-c4cccnc4)o3)c3ccccn23)cc(OC)c1OC | 106
CCCc1ccnc(NS(=O)(=O)c2ccc(N)cc2)n1 | 85.7
Cc1nc2scc(-c3ccc(Cl)cc3)n2c(=O)c1CCN1CCOCC1 | 85.6
CCOC(=O)Nc1ccc2c(c1)C(=O)N(CC)c1ccccc1O2 | 21.5
COc1cc(C(c2c[nH]c3ccccc23)N2CCCC2)ccc1OCc1ccccc1 (stereo unspecified) | 60.9
CN1/C(=C\C(I)C(I)C2=[N+](C)c3ccccc3C2(C)C)C(C)(C)c2ccccc21 (stereo unspecified) | 19.4
CCCc1c(CC)c(=N)c2ccccc2n1C | -3.76
Cc1cccc2c1O/C(=C\c1ncc([N+](=O)[O-])n1C)C2=O | -66.3
